- ASSAY_SYSTEM: T1, human RXFP1 (human, UniProt Q9HBX9 1-757)
- T1 sequence (looked up): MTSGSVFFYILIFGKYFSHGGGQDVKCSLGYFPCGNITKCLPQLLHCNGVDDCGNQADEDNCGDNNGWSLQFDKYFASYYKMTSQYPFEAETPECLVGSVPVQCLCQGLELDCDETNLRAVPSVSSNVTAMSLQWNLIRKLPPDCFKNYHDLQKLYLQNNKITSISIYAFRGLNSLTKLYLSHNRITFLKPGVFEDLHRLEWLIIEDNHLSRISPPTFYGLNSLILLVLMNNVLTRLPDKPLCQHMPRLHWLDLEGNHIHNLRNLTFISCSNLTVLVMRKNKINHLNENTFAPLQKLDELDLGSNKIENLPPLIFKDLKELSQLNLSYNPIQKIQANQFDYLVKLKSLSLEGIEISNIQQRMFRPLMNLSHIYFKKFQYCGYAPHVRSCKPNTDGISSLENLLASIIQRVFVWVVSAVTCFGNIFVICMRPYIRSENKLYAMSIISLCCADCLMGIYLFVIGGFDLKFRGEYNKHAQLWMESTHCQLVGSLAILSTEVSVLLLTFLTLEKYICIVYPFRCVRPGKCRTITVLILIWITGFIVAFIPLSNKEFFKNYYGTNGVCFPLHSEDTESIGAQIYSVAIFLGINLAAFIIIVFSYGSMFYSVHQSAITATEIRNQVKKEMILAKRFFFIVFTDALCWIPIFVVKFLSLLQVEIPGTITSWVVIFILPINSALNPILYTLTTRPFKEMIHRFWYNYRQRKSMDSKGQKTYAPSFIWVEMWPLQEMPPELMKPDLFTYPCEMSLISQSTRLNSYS
- MEASUREMENT_PROTOCOL: cell-based or functional assay
Numbered stars: 1 amine (or outer) side, 2 acyl side, 3 side chain; on linkers, the order of the positions; unused ones are H or OH. Square brackets hold non-standard residues; d marks the D form. Side chains are listed from the residue outwards. * marks the point of attachment. TTDS = 4-[3-[2-[2-(3-aminopropoxy)ethoxy]ethoxy]propylamino]-4-oxo-butanoyl; γGlu = O=C(O)[C@H](CCC(=O)[*:2])N[*:1]; Stearoyl = CCCCCCCCCCCCCCCCCC(=O)*; Palmitoyl = CCCCCCCCCCCCCCCC(=O)*; αMeK = C[C@](N)(CCCCN)C(=O)O; hLys = NCCCCC[C@H](N)C(=O)O; Aib = CC(C)(N)C(=O)O
Measured EC50 (nM), OVCAR 5 cells (cAMP) by item
Just the number please, in nM, no unit attached.

Here is how some binders turned out for EC50 (nM), OVCAR 5 cells (cAMP).
1) Ac-LEGREKVRAK(Ac)I[Aib][Aib]EGK([TTDS-TTDS-TTDS-γGlu-γGlu-γGlu-Stearoyl])STWS[Aib]RKK(Ac)-NH2 [Relaxin peptide analogue of SEQ ID NO: 20]	0.15
2) Ac-LEGREKVRAK(Ac)I[Aib][Aib]EGK([TTDS-TTDS-TTDS-γGlu-γGlu-γGlu-Palmitoyl])SKWS[Aib]RAK-NH2 [Relaxin peptide analogue of SEQ ID NO: 73]	0.2

Exercise: Give the value of EC50 (nM), OVCAR 5 cells (cAMP) reported for the following: Ac-LEGREKVRAK(Ac)I[Aib]IEGK([TTDS-TTDS-TTDS-γGlu-γGlu-γGlu-Palmitoyl])STWS[Aib]RKK(Ac)-NH2 [Relaxin peptide analogue of SEQ ID NO: 70]
Solution: 1.34

Exercise: Give recorded EC50 (nM), OVCAR 5 cells (cAMP). Ac-LEGREKVRAK(Ac)I[Aib][Aib]EGK([TTDS-TTDS-TTDS-γGlu-γGlu-γGlu-Palmitoyl])STWS[hLys]RAK(Ac)-NH2 [Relaxin peptide analogue of SEQ ID NO: 57]
Solution: 0.44

Exercise: Using the record for Ac-LEGRERVRAK(Ac)I[Aib][Aib]EGK([TTDS-TTDS-TTDS-γGlu-γGlu-γGlu-Palmitoyl])STWS[Aib]RKK(Ac)-NH2 [Relaxin peptide analogue of SEQ ID NO: 67] , state its measured EC50 (nM), OVCAR 5 cells (cAMP).
Solution: 0.48

Exercise: Answer with reported EC50 (nM), OVCAR 5 cells (cAMP) of Ac-LEGRELVRAK(Ac)I[Aib][Aib]EGK([TTDS-TTDS-TTDS-γGlu-γGlu-γGlu-Palmitoyl])STFS[αMeK]RAK(Ac)-NH2 [Relaxin peptide analogue of SEQ ID NO: 23]
Solution: 11.1

Exercise: Identify measured EC50 (nM), OVCAR 5 cells (cAMP) corresponding to Ac-LEGREKVRAK(Ac)I[Aib][Aib]EGK([TTDS-TTDS-TTDS-γGlu-γGlu-γGlu-Palmitoyl])STW[Aib]KRAK(Ac)-NH2 [Relaxin peptide analogue of SEQ ID NO: 35]
Solution: 2.33

Exercise: Please give the documented EC50 (nM), OVCAR 5 cells (cAMP) of Ac-LEGREKVRAK(Ac)I[Aib][Aib]EGK([TTDS-TTDS-TTDS-γGlu-γGlu-γGlu-Palmitoyl])SKFS[Aib]RKK(Ac)-NH2 [Relaxin peptide analogue of SEQ ID NO: 79]
Solution: 0.45

Exercise: Look up and state reported EC50 (nM), OVCAR 5 cells (cAMP) for Ac-LEGREKVRAK(Ac)I[Aib][Aib]EGK([TTDS-TTDS-TTDS-γGlu-γGlu-γGlu-Palmitoyl])STFS[αMeK]RAK(Ac)-NH2 [Relaxin peptide analogue of SEQ ID NO: 3]
Solution: 0.34
